src = paper PMC6858373

Answer each item with its documented Luciferase Assay Z-score (full-length luciferase counter-screen).
- target under test: full-length P. pyralis luciferase (Photinus pyralis, UniProt P08659, K549A/L550V/N119G/N50D/S548I)
- Sequence (P08659 whole entry N50D/N119G/S548I/K549A/L550V, looked up): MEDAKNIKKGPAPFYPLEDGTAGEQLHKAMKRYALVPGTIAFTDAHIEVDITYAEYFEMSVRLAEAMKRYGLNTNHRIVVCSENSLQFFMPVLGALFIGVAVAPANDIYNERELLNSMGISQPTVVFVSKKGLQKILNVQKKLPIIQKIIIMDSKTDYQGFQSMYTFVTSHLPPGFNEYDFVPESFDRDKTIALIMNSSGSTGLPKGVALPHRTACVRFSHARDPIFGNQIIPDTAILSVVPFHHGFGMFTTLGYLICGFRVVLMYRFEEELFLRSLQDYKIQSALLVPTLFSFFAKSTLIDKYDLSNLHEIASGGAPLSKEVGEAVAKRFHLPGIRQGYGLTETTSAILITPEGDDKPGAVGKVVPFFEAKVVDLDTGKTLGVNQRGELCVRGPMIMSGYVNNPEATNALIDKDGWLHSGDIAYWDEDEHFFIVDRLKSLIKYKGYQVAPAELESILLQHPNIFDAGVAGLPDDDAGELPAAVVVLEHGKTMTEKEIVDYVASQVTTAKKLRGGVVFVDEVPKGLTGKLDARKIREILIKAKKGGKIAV
- Format: cell-based
- test parameters: CC_NCI screening; normalized to on-plate 0.3% DMSO controls
Structures can show the parent of a compound that is named as a salt.
One number for each entry.

{"compound": "Cc1[nH]c2ccccc2c1CCNCc1ccc(/C=C/C(=O)NO)cc1 [LBH-589]", "recorded number": 0.20}
{"compound": "Nc1ccn([C@@H]2O[C@H](CO)[C@@H](O)C2(F)F)c(=O)n1 [Gemcitabine hydrochloride]", "recorded number": 0.31}
{"compound": "O=c1cc(N2CCOCC2)oc2c(-c3ccccc3)cccc12 [LY 294002]", "recorded number": -2.50}
{"compound": "O=NN(CCCl)C(=O)NCCCl [Carmustine]", "recorded number": 0.37}
{"compound": "Cl.N[C@@H](Cc1ccc(N(CCCl)CCCl)cc1)C(=O)O [Melphalan hydrochloride]", "recorded number": -1.86}

Req: Hello, please tell me recorded Luciferase Assay Z-score (full-length luciferase counter-screen) for this one: CC1(C)CNc2cc(NC(=O)c3cccnc3NCc3ccncc3)ccc21 [MOTESANIB]
Resp: -3.03

====

- target under test: full-length P. pyralis luciferase (Photinus pyralis, UniProt P08659, K549A/L550V/N119G/N50D/S548I)
- Type: cell-based
- test parameters: CC_NCI screening; normalized to on-plate 0.3% DMSO controls
Answer each item with its documented Luciferase Assay % Lum (full-length luciferase counter-screen).
Give bare numbers, in %.

Go through the list and state Luciferase Assay % Lum (full-length luciferase counter-screen) for each entry.
1. O=C1NC(=O)/C(=C/c2ccc(-c3ccc(F)cc3O)o2)S1 [AS 252424]
2. Cc1cc(Nc2cc(N3CCN(C)CC3)nc(Sc3ccc(NC(=O)C4CC4)cc3)n2)[nH]n1 [TOZASERTIB]
3. COc1ccc(OC)c2c(=S)c3ccccc3[nH]c12 [NSC 625987]
4. COc1ccc2c(c1OC)N=C(NC(=O)c1cccnc1)N1CCN=C21 [PIK 90]

Resp:
[69.90, 73.72, 78.37, 102.65]

====

- target under test: full-length P. pyralis luciferase (Photinus pyralis, UniProt P08659, K549A/L550V/N119G/N50D/S548I)
- Type: cell-based
- test parameters: CC_NCI screening; normalized to on-plate 0.3% DMSO controls
Structures can show the parent of a compound that is named as a salt.
readout label: Luciferase Assay % Lum (full-length luciferase counter-screen) (%)
One number for each entry, in %.

Go through the list and state Luciferase Assay % Lum (full-length luciferase counter-screen) for each entry.
1. COc1cc([C@@H]2c3cc4c(cc3[C@@H](O[C@@H]3O[C@@H]5CO[C@@H](c6cccs6)O[C@H]5[C@H](O)[C@H]3O)[C@H]3COC(=O)[C@H]23)OCO4)cc(OC)c1O [Teniposide]
2. Cc1c[nH]c(-c2cnc(NCCNc3ccc(C#N)cn3)nc2-c2ccc(Cl)cc2Cl)n1 [CHIR 99021]
3. CC(C)Cn1cnc2c(N)nc3ccccc3c21 [Imiquimod]
4. NC(=O)NO [Hydroxyurea]
5. Nc1ccn([C@@H]2O[C@H](CO)[C@@H](O)[C@@H]2O)c(=O)n1 [Cytarabine hydrochloride]
6. O=c1[nH]nc(Sc2ncc([N+](=O)[O-])s2)n1-c1ccc2c(c1)OCCO2 [JNK INHIBITOR X]

Resp:
1: 92.82; 2: 70.15; 3: 104.72; 4: 102.60; 5: 93.77; 6: 4.80

Go through the list and state Luciferase Assay % Lum (full-length luciferase counter-screen) for each entry.
1. Nc1ncnc2c1c(-c1cnc3[nH]ccc3c1)nn2C1CCCC1 [PP121, reference compound]
2. CC1(C)CNc2cc(NC(=O)c3cccnc3NCc3ccncc3)ccc21 [MOTESANIB]

Resp:
1: 124.27; 2: 76.36

====

Answer each item with its documented Luciferase Assay % Lum.
- target under test: full-length P. pyralis luciferase (Photinus pyralis, UniProt P08659, K549A/L550V/N119G/N50D/S548I)
- Format: cell-based
Give bare numbers, in %.

{"compound": "CNC(=O)c1ccc(N2C(=S)N(c3ccc(C#N)c(C(F)(F)F)c3)C(=O)C2(C)C)cc1F [Enzalutamide]", "recorded number": 80.08}
{"compound": "Cc1ccc(NC(=O)c2ccc(CN3CCN(C)CC3)cc2)cc1Nc1nccc(-c2cccnc2)n1 [Imatinib]", "recorded number": 90.17}
{"compound": "NCCCNCCSP(=O)(O)O [Amifostine]", "recorded number": 101.20}
{"compound": "Oc1ncc(N(CCCl)CCCl)c(O)n1 [Uracil mustard]", "recorded number": 97.98}
{"compound": "Nc1nc(Cl)nc2c1ncn2[C@@H]1O[C@H](CO)[C@@H](O)[C@@H]1F [Clofarabine]", "recorded number": 100.89}
{"compound": "CCCS(=O)(=O)Nc1ccc(F)c(C(=O)c2c[nH]c3ncc(Cl)cc23)c1F [PLX4720, reference compound]", "recorded number": 79.36}
{"compound": "COc1cc2ncnc(Nc3cccc(Br)c3)c2cc1OC [PD 153035]", "recorded number": 83.75}
{"compound": "C[S+]([O-])c1ccc(-c2nc(-c3ccncc3)c(-c3ccc(F)cc3)[nH]2)cc1 (stereo not drawn) [SB 203580, reference compound]", "recorded number": 80.35}

Req: Hello, please tell me recorded Luciferase Assay % Lum for this one: O=C(CCBr)N1CCN(C(=O)CCBr)CC1 [Pipobroman]
Resp: 102.03

====

- target under test: FGF14:Nav1.6 C-tail complex (Homo sapiens, UniProt Q92915+Q9UQD0)
- Construct: polymerase chain reaction (PCR) amplification of the FGF14 open reading frame (nt 1–855); C-terminal fragment of Nav1.6 (amino acids 1763–1976) fused with CD4ΔC-tail (amino acids 1–395); expressed in transfected cells
- Sequence (Q92915 1-252 isoform Q92915-2): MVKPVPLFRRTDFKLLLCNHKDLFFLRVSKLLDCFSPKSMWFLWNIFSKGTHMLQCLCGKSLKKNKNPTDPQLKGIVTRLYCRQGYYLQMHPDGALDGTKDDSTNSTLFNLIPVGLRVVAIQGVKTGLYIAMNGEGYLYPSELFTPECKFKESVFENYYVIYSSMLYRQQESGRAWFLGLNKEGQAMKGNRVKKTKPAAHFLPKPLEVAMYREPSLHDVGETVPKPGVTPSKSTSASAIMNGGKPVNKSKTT
- Sequence (Q9UQD0 1763-1976 limits assumed): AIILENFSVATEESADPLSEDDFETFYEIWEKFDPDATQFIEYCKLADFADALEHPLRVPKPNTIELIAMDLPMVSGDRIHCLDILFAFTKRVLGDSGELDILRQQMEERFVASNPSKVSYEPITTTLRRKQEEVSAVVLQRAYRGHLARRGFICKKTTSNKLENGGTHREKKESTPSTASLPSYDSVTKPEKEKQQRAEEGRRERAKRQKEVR
- protocol: Split-luciferase complementation assay (LCA) in Clone V double stable HEK293 cells
- Format: cell-based
- test parameters: CC_NCI screening, biological replicate Set 1; normalized to on-plate 0.3% DMSO controls
Define the label as met when Split Luciferase Assay Z-score Set 1 is strictly less than 1 and as not met in all remaining cases.

Solved cases below.
{"compound": "C#Cc1cccc(Nc2ncnc3cc(OCCOC)c(OCCOC)cc23)c1", "cat": "met"}
{"compound": "CN(Cc1cnc2nc(N)nc(N)c2n1)c1ccc(C(=O)N[C@@H](CCC(=O)O)C(=O)O)cc1 [Methotrexate]", "cat": "met"}
{"compound": "CC(C)C[C@H](NC(=O)[C@H](CCc1ccccc1)NC(=O)CN1CCOCC1)C(=O)N[C@@H](Cc1ccccc1)C(=O)N[C@@H](CC(C)C)C(=O)[C@@]1(C)CO1", "cat": "met"}

Now, please, on to the next compound.
Req: Does the reported Split Luciferase Assay Z-score Set 1 of the following compound sit strictly below 1? NS(=O)(=O)c1nn2cc(-c3ccccc3)nc2s1
Resp: not met

====

// each record: one item and its Toxicity Assay % Fluor (CTB cell viability fluorescence) for Clone V cells
Numbers only, in %.

{"compound": "COc1cc2c(Nc3ccc(NC(=O)c4ccccc4)cc3)ncnc2cc1OCCCN1CCOCC1 [ZM447439]", "recorded number": 106.45}
{"compound": "O=C(CCCCCCC(=O)Nc1ccccc1)NO [VORINOSTAT]", "recorded number": 108.87}
{"compound": "Fc1ccc(Cl)cc1-c1nc(Nc2ccncc2)c2nccnc2n1 [SD 208]", "recorded number": 107.60}
{"compound": "COc1cc(N2CCC(N3CCN(C)CC3)CC2)ccc1Nc1ncc(Cl)c(Nc2ccccc2S(=O)(=O)C(C)C)n1 [NVP TAE684]", "recorded number": 37.86}
{"compound": "Cc1ccc([N+](=O)[O-])cc1S(=O)(=O)N(C)/N=C/c1cnc2ccc(Br)cn12 [PIK 75, reference compound]", "recorded number": 101.60}
{"compound": "CS(=O)(=O)CCNCc1ccc(-c2ccc3ncnc(Nc4ccc(OCc5cccc(F)c5)c(Cl)c4)c3c2)o1 [Lapatinib]", "recorded number": 114.10}

Go through the list and state Toxicity Assay % Fluor (CTB cell viability fluorescence) for each entry.
1. CCN(CC)CCCC(C)Nc1nc(C)cc(Nc2ccc3nc(C)cc(N)c3c2)n1 (centres unmarked) [NSC23766]
2. N#Cc1c(O)c2c(-c3ccc(-c4ccccc4O)cc3)csc2[nH]c1=O [Compound A-769662]

Resp:
1: 111.37; 2: 107.48

====

- target under test: FGF14:Nav1.6 C-tail complex (Homo sapiens, UniProt Q92915+Q9UQD0)
- Construct: polymerase chain reaction (PCR) amplification of the FGF14 open reading frame (nt 1–855); C-terminal fragment of Nav1.6 (amino acids 1763–1976) fused with CD4ΔC-tail (amino acids 1–395); expressed in transfected cells
- protocol: Split-luciferase complementation assay (LCA) in Clone V double stable HEK293 cells
- Type: cell-based
- test parameters: CC_NCI screening, biological replicate Set 2; normalized to on-plate 0.3% DMSO controls
readout label: Split Luciferase Assay Z-score Set 2
Numbers only.

Completed entries (count: 5):
{"molecule": "CC1(C)CNc2cc(NC(=O)c3cccnc3NCc3ccncc3)ccc21 [MOTESANIB]", "recorded number": -0.86}
{"molecule": "O=c1cc(N2CCOCC2)oc2c(-c3ccccc3)cccc12 [LY 294002]", "recorded number": -1.87}
{"molecule": "NC(=O)c1ccc(N(C(N)=O)c2c(F)cccc2F)nc1-c1ccc(F)cc1F [VX-702]", "recorded number": -2.63}
{"molecule": "O=C1NC(=O)/C(=C/c2ccc3c(c2)OC(F)(F)O3)S1 [AS-604850]", "recorded number": -1.96}
{"molecule": "NC(=O)Nc1cc(-c2cccc(F)c2)sc1C(=O)N[C@H]1CCCNC1 [AZD 7762]", "recorded number": -2.63}

Go through the list and state Split Luciferase Assay Z-score Set 2 for each entry.
1. Sc1ncnc2nc[nH]c12 [Mercaptopurine]
2. CN(Cc1cnc2nc(N)nc(N)c2n1)c1ccc(C(=O)N[C@@H](CCC(=O)O)C(=O)O)cc1 [Methotrexate]
3. CC(=O)O[C@H]1C(=O)[C@@]2(C)[C@H]([C@H](OC(=O)c3ccccc3)[C@]3(O)C[C@H](OC(=O)[C@H](O)[C@@H](NC(=O)c4ccccc4)c4ccccc4)C(C)=C1C3(C)C)[C@]1(OC(C)=O)CO[C@@H]1C[C@@H]2O [Paclitaxel]

Resp:
1: 1.01; 2: 0.24; 3: -0.43
